What inhibition was measured for each of the following?
- method.summary: TLR3 IRF3 reporter activation blockers – cell-based, poly I:C stimulus, luciferase, 10K MLSCN set, primary screen (AID 602277)
- condition.details: HEK293-TLR3 RL24 IRF3 luciferase reporter, at 10 µM, active compounds read high
Just the number please, in %, no unit attached.

# lookup: inhibition of `CCOc1cccc2cc(C(=O)N3CCN(C/C=C/c4ccccc4)CC3)c(=O)oc12`
-10.8

# lookup: inhibition of `COc1cccc(NC(=O)COC(=O)c2ccco2)c1`
20.6

# lookup: inhibition of COc1cccc(C2CC(c3ccc(F)cc3)Nc3nc(N)nn32)c1 (stereo unspecified)
16.2

# lookup: inhibition of `Cc1c(C(=O)OC2CCCCC2)[nH]c2c1C(=O)CC(C)(C)C2`
-13.3

# lookup: inhibition of CC(Oc1ccccc1)C(=O)NC1CC(C)(C)NC(C)(C)C1 (stereo unspecified)
26.2

# lookup: inhibition of `Cc1nnc(C)c2c(C)n(Cc3ccc4c(c3)OCO4)c(C)c12`
-7.65

# lookup: inhibition of O=C(NCc1ccco1)c1ccc2c(=O)n(CC3CCCO3)c(=S)[nH]c2c1 (stereo unspecified)
15.2

# lookup: inhibition of `CCn1c(SCC(=O)Nc2ccc(C(=O)OC)cc2)nnc1-c1cccs1`
12.6

# lookup: inhibition of `COc1ccc(CCNS(=O)(=O)c2ccc3oc(C(=O)O)c(C)c3c2)cc1OC`
21.9

# lookup: inhibition of `Cc1ccc(-n2c3c(cc(C(=O)NCCCN4CCOCC4)c2=O)C(=O)CC(C)(C)C3)cc1`
36.9

# lookup: inhibition of `C=CCNC(=O)CSc1nc2sc(C)c(C)c2c(=O)[nH]1`
21.7

###

- method.summary: blockers of RIG-like receptor reporter activation – cell-based, Sendai virus stimulus, luciferase, 10K MLSCN set, TLR/RLR signaling modifier project, primary screen (AID 602276);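 further: firefly luciferase from ISG56 promoter only with Renilla not read in this screen; 0% = Sendai virus plus DMSO and 100% = medium plus DMSO without virus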
- condition.details: HEK293 RL24 IRF3 luciferase reporter, at 10 µM, active compounds read high
What inhibition was measured for each of the following?
Just the number please, in %, no unit attached.

# lookup: inhibition of CC(C)C1N=C2c3ccccc3N=C(SCc3cc(=O)n4ccccc4n3)N2C1=O (stereo not drawn)
6.75

# lookup: inhibition of `N#Cc1c(-c2ccccc2)nc(N2CCCCCC2)[nH]c1=O`
6.52

# lookup: inhibition of `Cc1cccc(-c2nnn(CC/C(N)=N/O)n2)c1`
2.73

# lookup: inhibition of `Cc1ccc(-n2c(-c3ccncc3)nnc2-c2cccs2)cc1`
11.8

# lookup: inhibition of `COC(=O)CCC(=O)Nc1cccc(Cl)c1`
3.5

# lookup: inhibition of CCOC(=O)C1CCN(c2c(N3CCCC(C(=O)OCC)C3)c(=O)c2=O)CC1 (stereo not drawn)
-1.39

# lookup: inhibition of COc1ccc(N2C(=O)CC(N3CCN(c4ccccc4F)CC3)C2=O)cc1 (stereo not drawn)
6.58

# lookup: inhibition of `N#Cc1cnc(SCCc2ccccc2)nc1N`
-34

# lookup: inhibition of `c1cc2c(cc1Nc1nc(-c3ccc4c(c3)OCO4)cs1)OCCO2`
-63.5

# lookup: inhibition of `Cc1cc2c(cc1C)C(=O)NC(C)(C)C2`
-1.09

# lookup: inhibition of `c1cc2c(cc1Cn1cnnn1)OCO2`
13.3

# lookup: inhibition of `NC(=O)c1sc2nc3c(c(-c4ccco4)c2c1N)CCC3`
16.4

# lookup: inhibition of `COc1ccc(-c2nc(C#N)c(NCCCN(C)C)o2)cc1OC`
1.52

# lookup: inhibition of `C=CCn1c(-c2cccs2)nc2nc3ccccc3nc21`
-3.42

# lookup: inhibition of COc1cc(C(=O)N2CCC(NC(=O)C(Cc3ccc(C)cc3)NC(C)=O)CC2)cc(OC)c1OC (stereo not drawn)
1.73

# lookup: inhibition of CCC(C)(C(=O)NC1CCCCC1)N(CC1CCCO1)C(=O)c1ccccn1 (stereo not drawn)
15.2

# lookup: inhibition of COc1cccc(C2CC(c3ccc(C)cc3)n3nc(N)nc3N2)c1 (stereo not drawn)
9.08

# lookup: inhibition of `COc1ccc(-c2cc(C(F)(F)F)nc(N3CCN(c4ccc(F)cc4)CC3)n2)cc1OC`
-20.5

# lookup: inhibition of `COc1ccc(Cc2nc(-c3ccc(NC(=O)c4cccnc4)cc3)no2)cc1`
-8.06

# lookup: inhibition of CC(C)(C)NC(=O)CN(C(=O)CS(=O)CC(=O)Nc1ccc(F)cc1)c1ccc(Cl)cc1 (stereo not drawn)
19.1

# lookup: inhibition of `Cc1ccc(-n2nc(C)c3cc(C(=O)O)sc32)cc1`
12.6

# lookup: inhibition of `O=C(Oc1ccccc1)c1cccc(COC(=O)c2cnccn2)c1`
5.8

# lookup: inhibition of Cc1ccc(NC(=O)CN2CC(C)SC2=NC2CCCCC2)cc1 (stereo not drawn)
17.3
